- Test system: HCT-15 colon
- Assay Info: NCI-60 one-dose screen, 48 h
- Test Context: 10 µM unless noted
This is part of a sample that, as a whole, favours compounds with a hit. Of some 83,000 tested, about 20% had one in any assay. Activity calls are given as the source filed them. The calls were made as follows: active = growth percent below 10; inactive = the rest.
Labels: active, inactive

>  <Molecule>
CCC1=Cc2c(OC)cccc2OC12C=Cc1c(OC)cccc1O2 (centres undefined)

>  <Assigned Category>
inactive

$$$$
>  <Molecule>
C[C@H](Nc1ncnc2ccc(-c3cnc(Cl)c(NS(C)(=O)=O)c3)cc12)c1ccccc1

>  <Assigned Category>
active

$$$$
>  <Molecule>
CCOC(=O)c1ccc(NC2=C(Cl)C(=O)c3nc(C)ccc3C2=O)cc1

>  <Assigned Category>
active

$$$$
>  <Molecule>
O=C(/C=C/C=C/c1csc(Br)n1)NO

>  <Assigned Category>
inactive

$$$$
>  <Molecule>
CC1CC(=O)C2=C(C1)Nc1ccc(Br)cc1CC2c1c[nH]c2ccc(Br)cc12 (centres undefined)

>  <Assigned Category>
inactive

$$$$
>  <Molecule>
O=C(/C=C/c1cccc(F)c1)c1cccc(OCCCOc2cccc(C(=O)/C=C/c3cccc(F)c3)c2)c1

>  <Assigned Category>
active

$$$$
>  <Molecule>
CC1=C(C)C(=O)C(Nc2cccc(C(F)(F)F)c2)=C(Br)C1=O

>  <Assigned Category>
inactive

$$$$
>  <Molecule>
COc1ccc(C2CC(c3cccc(OCCCCOc4cccc(C5=NOC(c6ccc(OC)cc6)C5)c4)c3)=NO2)cc1 (centres undefined)

>  <Assigned Category>
inactive

$$$$
>  <Molecule>
Cc1ccc2c(n1)C(=O)C(Cl)=C(Nc1ccccc1C(=O)OC(C)(C)C)C2=O

>  <Assigned Category>
active

$$$$
>  <Molecule>
CCOC(=O)c1cccnc1Nc1ccc(NC(=O)Nc2ccc(Cl)c(C(F)(F)F)c2)cc1

>  <Assigned Category>
inactive

$$$$
>  <Molecule>
COc1ccc(/C=N/NC(=O)c2c(N)nn(C)c2Nc2ccccc2)cc1

>  <Assigned Category>
inactive

$$$$
>  <Molecule>
CC(=O)Nc1ccccc1-c1nc2ccccc2s1

>  <Assigned Category>
inactive

$$$$
>  <Molecule>
Nc1cc(C(=O)N/N=C\c2ccc(OC(F)F)c(OC3CCCC3)c2)nn1CC(O)c1ccccc1 (centres undefined)

>  <Assigned Category>
inactive

$$$$
>  <Molecule>
C1=CC(c2nn3c(-c4ccccc4)nnc3s2)=Cc2ccccc2O1

>  <Assigned Category>
inactive

$$$$
>  <Molecule>
CC1(C)CC[C@]2(C(=O)O)CC[C@]3(C)C(=CC[C@@H]4[C@@]5(C)CC[C@H](NOCCCN)C(C)(C)[C@@H]5CC[C@]43C)[C@@H]2C1

>  <Assigned Category>
inactive

$$$$
>  <Molecule>
C=C1CCc2nc(SCC(=O)O)ccc2N1

>  <Assigned Category>
inactive

$$$$
>  <Molecule>
CCCc1[nH]c(-c2cc(N)ccc2Cl)c2c1C(=O)CCCC2

>  <Assigned Category>
inactive

$$$$
>  <Molecule>
COC(=O)c1cccc(NC2=C(Cl)C(=O)C(C)=C(C)C2=O)c1

>  <Assigned Category>
inactive

$$$$
>  <Molecule>
Cc1ccc(/C(N)=N/C(N)=N/c2nc3ccccc3s2)cc1

>  <Assigned Category>
inactive

$$$$
>  <Molecule>
COc1ccc(-c2cc(-c3ccc(N4CCOCC4)cc3)n3c(n2)nc2ccccc23)cc1OC

>  <Assigned Category>
inactive

$$$$
>  <Molecule>
O=C1C(SCc2ccccc2)=C(Cl)CN1c1ccccc1

>  <Assigned Category>
inactive

$$$$
>  <Molecule>
O=C(CSc1nc2ccccc2c(=O)n1-c1ccc(Cl)c(Cl)c1)Nc1ccc(S(=O)(=O)Nc2ccc(Cl)nn2)cc1

>  <Assigned Category>
inactive

$$$$
>  <Molecule>
O=C1[C@@H]2Cc3c([nH]c4ccccc34)[C@H](c3ccc(Cl)cc3)N2C(=O)CN1C1CCN(Cc2ccccc2)CC1

>  <Assigned Category>
inactive

$$$$
>  <Molecule>
CCCCSC1=C(Cl)CN(c2ccccc2)C1=O

>  <Assigned Category>
inactive

$$$$
>  <Molecule>
N#C/C(=N\Nc1ccc(F)cc1)C(=O)Nc1cc(-c2ccccc2)nn1-c1ccccc1

>  <Assigned Category>
active

$$$$
>  <Molecule>
CC(Nc1c(C#N)cnc2ccc(-c3cncc(O)c3)cc12)c1ccccc1 (centres undefined)

>  <Assigned Category>
active

$$$$
>  <Molecule>
CCOC(=O)C1=C(C)NC(C)=C(C(=O)OC(C)C)C1c1cccc(C#N)c1 (centres undefined)

>  <Assigned Category>
inactive

$$$$
>  <Molecule>
CCOC(=O)Nc1ccc2c(ccn2C(=O)c2cccc(F)c2)c1

>  <Assigned Category>
inactive

$$$$
>  <Molecule>
Cc1ccc(NC2=C(Cl)C(=O)c3nc(C)ccc3C2=O)c(C)c1

>  <Assigned Category>
active

$$$$
>  <Molecule>
CCCNNC(=O)c1ccc(-c2ccc(NC(=O)CCCCCCC(=O)N[C@H](C(=O)N3C[C@H](O)C[C@H]3C(=O)N[C@@H](C)c3ccc(-c4scnc4C)cc3)C(C)(C)C)cc2)cc1

>  <Assigned Category>
inactive

$$$$
>  <Molecule>
COc1ccc(-c2c(C(N)=O)c(N)n(Cc3nc4ccccc4[nH]3)c(=O)c2C#N)c(OC)c1

>  <Assigned Category>
inactive

$$$$
>  <Molecule>
Cc1ccc2c(n1)C(=O)C(Cl)=C(Nc1cccc(C(=O)OC(C)(C)C)c1)C2=O

>  <Assigned Category>
inactive

$$$$
>  <Molecule>
N#CC1=C2NCCCNc3oc(nc3C#N)Cc3ccccc3CC(=N1)O2

>  <Assigned Category>
inactive

$$$$
>  <Molecule>
O=C(O)c1ccc(-n2c(=O)n(-c3cccc(C(F)(F)F)c3)c(=O)c3cc(-c4ccc(F)cc4F)ccc32)cc1

>  <Assigned Category>
inactive

$$$$
>  <Molecule>
COc1ccc(C(C)=C(c2ccc(OCCN3CCCCCC3)cc2)c2ccc(OCCN3CCCCCC3)cc2)cc1

>  <Assigned Category>
active

$$$$
>  <Molecule>
O=C(CCCCCCN1CC(=O)N2[C@@H](c3ccc(Cl)s3)c3[nH]c4ccccc4c3C[C@H]2C1=O)NO

>  <Assigned Category>
inactive

$$$$
>  <Molecule>
CCS(=O)(=O)Nc1ccc(C(=O)CC2(O)C(=O)Nc3ccccc32)cc1 (centres undefined)

>  <Assigned Category>
inactive

$$$$
>  <Molecule>
CCCCOc1ccc(S(=O)(=O)N2CCN(c3nc(C)cc(N4CCOCC4)n3)CC2)cc1

>  <Assigned Category>
active

$$$$
>  <Molecule>
Cc1cc(=O)oc2cc(OCCCOc3ccc(/C=C/C(=O)Nc4ccc(Br)cc4)cc3)ccc12

>  <Assigned Category>
inactive

$$$$
